- experimental_details: Quantitative High-Throughput drug screen in 47 multiple myeloma cell lines against the NCATS MIPE library collection: KMS26_JCRB cell viability assay (AID 1918975); further: nearly all actives have a fitted effect of over 45% in size
- applied_conditions: KMS26 myeloma cells viability, CellTiter-Glo ATP, 48 h; series mostly up to 45.8 µM
Results filed as inconclusive are left out. Calls of active or inactive are those of the source. The call rests on the fitted dose curve; in most records, active means well fitted cell-killing curve with a large enough effect; inconclusive means small, poorly fitted or top-dose-only effect, or effect the other way; inactive means no such curve, though single readings can be large or run the other way.
Outcome (select one): 1 (yes) = active, 0 (no) = inactive

# example entries with known answers
# mol, assigned_class
rows = [
    ("Oc1cccc(-c2nc(N3CCOCC3)c3oc4ncccc4c3n2)c1", "1 (yes)"),
    ("CCOc1ccc(Cc2cc([C@@H]3O[C@H](CO)[C@@H](O)[C@H](O)[C@@H]3O)ccc2Cl)cc1", "0 (no)"),
]

Q: # fetch the recorded call for `CC[C@H](Nc1ncnc2nc[nH]c12)c1nc2cccc(F)c2c(=O)n1-c1ccccc1` here
Ans: 1 (yes)

Q: # fetch the recorded call for `CCOc1cc(C(=O)Nc2ccc(Cl)c(-c3nc4ccccc4[nH]3)c2)cc(OCC)c1OCC` here
Ans: 0 (no)
